Test system: HEK-293T
protocol_summary: Cytotoxicity against human 293T cells after 48 hrs by MTT assay
Format: cell-based
measured_metric: pIC50
Lab note — pIC50 values are minus log10 of concentrations in M.

These solved cases illustrate the format of a correct answer.
{"compound": "O=C(COc1cc(O)c2c(=O)cc(-c3ccccc3)oc2c1)OCc1cc(-c2ccc(Cl)cc2)n(-c2ccccc2)n1", "subject_of_test": "HEK-293T", "pIC50": 3.64}
{"compound": "O=C(COc1cc(O)c2c(=O)cc(-c3ccccc3)oc2c1)OCc1cc(-c2ccccc2)n(-c2ccccc2)n1", "subject_of_test": "HEK-293T", "pIC50": 3.76}
{"compound": "O=c1cc(-c2ccccc2)oc2cc(O)cc(O)c12 [CHRYSIN]", "subject_of_test": "HEK-293T", "pIC50": 3.50}
{"compound": "Cc1ccc(-n2nc(COC(=O)COc3cc(O)c4c(=O)cc(-c5ccccc5)oc4c3)cc2-c2cccc(Cl)c2)cc1", "subject_of_test": "HEK-293T", "pIC50": 3.79}
{"compound": "Cc1ccc(-n2nc(COC(=O)COc3cc(O)c4c(=O)cc(-c5ccccc5)oc4c3)cc2-c2cccc(C)c2)cc1", "subject_of_test": "HEK-293T", "pIC50": 3.40}

Look up and report measured pIC50 for this entry: "O=C(COc1cc(O)c2c(=O)cc(-c3ccccc3)oc2c1)OCc1cc(-c2cccc(Cl)c2)n(-c2ccc(Cl)cc2)n1"
3.57

Respond only with pIC50 recorded for "Cc1ccc(-n2nc(COC(=O)COc3cc(O)c4c(=O)cc(-c5ccccc5)oc4c3)cc2-c2ccc(Cl)cc2)cc1"
3.52
